Data origin: PubChem BioAssay

Molecular target: Follistatin-related protein 3 (Homo sapiens)
Assay: FSTL3 binders on small-molecule microarrays, primary screen, biochemical, small-molecule microarray, 635 nm fluorescence (AID 1105);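 further: score merges emission near 667 nm and signal to noise per printed spot across three slides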
Conditions: FSTL3 binding, higher = more signal
property.label: composite z-score
Form rule: numeric answer, no unit written next to it.

Some compounds with recorded composite z-score:
- cpd.smiles: "COc1c(C)cc(-c2cc3c(c(-c4ccc(Oc5ccccc5)cc4)n2)[Si](C(C)C)(C(C)C)OC3)cc1C"
  composite z-score: -0.069
- cpd.smiles: "O=C1O[C@@H](c2ccccc2)[C@@H](c2ccccc2)N2[C@@H](c3ccc(OCCO)cc3)[C@]3(C(=O)Nc4ccc(C#CC5=CCCCC5)cc43)[C@@H](C(=O)O)[C@H]12"
  composite z-score: 0.636
- cpd.smiles: "C=C(CCCC)C(=O)CC[C@H](OC(=O)c1cccnc1)c1cccc(OCCO)c1"
  composite z-score: -0.688

Switching to the query record.
# lookup: composite z-score of COCC1=C2[C@@H](CCc3ccccc3)OB(O)C[C@@H]2[C@@H]2C(=O)N(Cc3ccccc3)C(=O)[C@@H]2C1
0.191

----------
System: PRMT1 (protein arginine N-methyltransferase 1)
Test: PRMT1 binders on small-molecule microarrays, primary screen, biochemical, small-molecule microarray, 635 nm fluorescence (AID 1088);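 further: binding of Prmt1 protein to compounds spotted on small-molecule microarray slides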
Settings: small-molecule microarray binding, higher = more signal
The following compounds are listed with their measured composite z-score values.
Form rule: numeric answer, no unit written next to it.

Some compounds with recorded composite z-score:
- cpd.smiles: "CCOC(=O)C[C@H]1[C@H](OC(=O)Cc2ccc3c(c2)OCO3)[C@@H](NC(=O)C2CCCCC2)c2cc(OCCCO)ccc2N1C(=O)Cc1ccc(OC)cc1"
  target.of.assay: "PRMT1 (protein arginine N-methyltransferase 1)"
  composite z-score: 1.19
- cpd.smiles: "O=c1cccc(C=Cc2ccccc2)o1"
  target.of.assay: "PRMT1 (protein arginine N-methyltransferase 1)"
  composite z-score: -0.127

Can you look up composite z-score on PRMT1 (protein arginine N-methyltransferase 1) for COc1ccc(CCNC(=O)[C@@]2(Sc3ccc(C)cc3)CC(=O)N(Cc3ccccc3Cl)[C@@H]2c2ccc(CO)cc2I)cc1 ?
1.26

Now try COc1ccc([Si](C)(C)[C@H]2[C@H](CCn3cc([C@H](O)c4ccccc4)nn3)O[C@@]3(C(=O)N(Cc4cccc(N5CCC5=O)c4)c4ccccc43)[C@@H]2C)cc1 .
0.423

----------
Assay: HepG2 liver cancer cell viability effects, profiling panel, resazurin fluorescence, 24 h, PK04 Diversity Set (AID 1172); further: test concentration not given here
Details: higher = more signal
The following compounds are listed with their measured z-score values.
Form rule: numeric answer, no unit written next to it.

Some compounds with recorded z-score:
- compound: "CCCCCCc1nc(CCCc2cc3c(c(CCCCCC)n2)[Si](C(C)C)(C(C)C)OC3)cc2c1[Si](C(C)C)(C(C)C)OC2"
  z-score: -0.0097
- compound: "O=C1C=CC(=O)[C@@H]2CC(COc3ccccc3)=C3[C@@H](CCc4ccccc4)OB(O)C[C@@H]3[C@H]12"
  z-score: -0.814
- compound: "O=C1c2ccccc2[C@@]2(Cc3ccccc3N(Cc3ccccc3)C2=O)[C@H](c2ccc(CO)cc2)N1C1CCCCC1"
  z-score: 0.281
- compound: "CO[C@H]1O[C@H](CO)[C@@H](OC(=O)Nc2ccc(Oc3ccccc3)cc2)[C@H](OC(=O)Nc2ccccc2)[C@H]1OC(=O)Nc1ccccc1"
  z-score: -2.18
- compound: "C=C(CCCC)/C(=C/C[C@H](OC(C)=O)c1ccc(CO)o1)c1cnc2ccccc2c1"
  z-score: -0.0826
- compound: "CC(C)C(O)C1C=CC2C(=O)N(c3ccccc3)C(=O)C2N1Nc1ccc(C#N)cc1 (stereo unspecified)"
  z-score: -1.45
- compound: "[N-]=[N+]=NCc1ccccc1C[C@]1(C(=O)NCCN2CCOCC2)N=C(c2ccc(OCCCO)cc2)O[C@H]1c1ccccc1N=[N+]=[N-]"
  z-score: -0.854
- compound: "[N-]=[N+]=NCc1ccccc1[C@@H]1OC(c2ccc(OCCCO)cc2)=N[C@]1(Cc1ccccc1N=[N+]=[N-])C(=O)NCc1ccccc1"
  z-score: 0.206
- compound: "O=C(OCCF)C1=CCC(c2cccc(Cl)c2)O1 (stereo unspecified)"
  z-score: -0.185
- compound: "O=C/C=C/c1ccc(Cl)cc1"
  z-score: -0.831

# lookup: z-score of COCC(=C=CC[C@H](O)c1ccc(OCCO)cc1)C[C@H](O)c1cc(Cl)cc(Cl)c1O
0.751

Now try CN(C)CCCCCCNC(=O)[C@H]1C[C@H]2C(=O)N[C@@H](CCCCN)C(=O)N2[C@H]1c1ccc(O)cc1 .
-0.807

Now try [N-]=[N+]=NCc1ccccc1[C@@H]1OC(c2ccc(OCCCO)cc2)=N[C@]1(Cc1ccccc1)C(=O)N1CCCCC1 .
-0.596
